Form: system (Serine/threonine-protein kinase Chk1 (Homo sapiens)), quantity (IC50), values below.
Report the figure in µM without appending any unit label.

Prompt line: May I ask what IC50 has been recorded for NC(=O)c1ccc(-c2cc3c(N[C@H]4CCCNC4)ncc(C(N)=O)c3s2)cc1 ?
Response line: 0.001

Prompt line: Same thing, different molecule: NC(=O)c1cnc(N[C@H]2CCCNC2)c2cc(-c3cc(F)cc(F)c3)sc12
Response line: 0.005

Prompt line: Same thing, different molecule: NC(=O)c1cnc(N[C@H]2CCCNC2)c2cc(-c3ccc(Cl)c(F)c3)sc12
Response line: 0.009

Prompt line: Same thing, different molecule: NC(=O)c1cnc(N[C@H]2CCCNC2)c2cc(-c3cccc(Cl)c3)sc12
Response line: 0.004

Prompt line: Same thing, different molecule: COc1ccc(F)cc1-c1cc2c(N[C@H]3CCCNC3)ncc(C(N)=O)c2s1
Response line: 0.024

Prompt line: Same thing, different molecule: NC(=O)c1cnc(N[C@@H]2CCCNC2)c2cc(-c3ccc(Cl)cc3)sc12
Response line: 0.211

Prompt line: Same thing, different molecule: NC(=O)c1cnc(N[C@H]2CCCNC2)c2cc(-c3ccccc3)sc12
Response line: 0.004

Prompt line: Same thing, different molecule: NC(=O)c1cnc(N[C@H]2CCCNC2)c2cc(-c3ccc4cc[nH]c4c3)sc12
Response line: 0.016

Prompt line: Same thing, different molecule: NC(=O)c1cnc(N[C@H]2CCCNC2)c2cc(-c3cnc4ccccc4c3)sc12
Response line: 0.034

Prompt line: Same thing, different molecule: COc1ccccc1-c1cc2c(N[C@H]3CCCNC3)ncc(C(N)=O)c2s1
Response line: 0.019

Prompt line: Same thing, different molecule: NC(=O)c1cnc(N[C@H]2CCCNC2)c2cc(-c3ccc(F)c(F)c3)sc12
Response line: 0.002

Prompt line: Same thing, different molecule: CN(C)S(=O)(=O)c1ccc(-c2cc3c(N[C@H]4CCCNC4)ncc(C(N)=O)c3s2)cc1
Response line: 0.016

Prompt line: Same thing, different molecule: NC(=O)c1cnc(N2CCC[C@@H](N)C2)c2cc(-c3ccc(Cl)cc3)sc12
Response line: 0.148

Prompt line: Same thing, different molecule: CC(=O)Nc1cccc(-c2cc3c(N[C@H]4CCCNC4)ncc(C(N)=O)c3s2)c1
Response line: 0.002

Prompt line: Same thing, different molecule: NC(=O)c1cnc(N[C@H]2CCCNC2)c2cc(-c3ccncc3)sc12
Response line: 0.003

Prompt line: Same thing, different molecule: CNCCNc1ncc(C(N)=O)c2sc(-c3ccc(Cl)cc3)cc12
Response line: 0.007

Prompt line: Same thing, different molecule: NC(=O)c1cnc(N[C@H]2CCCNC2)c2cc(-c3cccc(CO)c3)sc12
Response line: 0.003

Prompt line: Same thing, different molecule: NC(=O)c1cnc(N[C@H]2CCCNC2)c2cc(-c3ccc(OC(F)(F)F)cc3)sc12
Response line: 0.009

Prompt line: Same thing, different molecule: NC(=O)c1cnc(N[C@H]2CCCNC2)c2cc(-c3ccccc3Cl)sc12
Response line: 0.021

Prompt line: Same thing, different molecule: NC(=O)c1cnc(NC[C@@H]2CSCN2)c2cc(-c3ccc(Cl)cc3)sc12
Response line: 0.937

Prompt line: Same thing, different molecule: NC(=O)c1cnc(NC2CNC2)c2cc(-c3ccc(Cl)cc3)sc12
Response line: 0.707

Prompt line: Same thing, different molecule: COc1ccc(-c2cc3c(N[C@H]4CCCNC4)ncc(C(N)=O)c3s2)cn1
Response line: 0.003

Prompt line: Same thing, different molecule: NC(=O)c1cnc(N[C@H]2CCCCNC2)c2cc(-c3ccc(Cl)cc3)sc12
Response line: 0.003

Prompt line: Same thing, different molecule: NC(=O)c1cnc(N[C@H]2CCCNC2)c2cc(-c3ccc4sccc4c3)sc12
Response line: 0.004

Prompt line: Same thing, different molecule: NC(=O)c1cnc(N[C@H]2CCCNC2)c2cc(Br)sc12
Response line: 0.056

Prompt line: Same thing, different molecule: NC(=O)c1cnc(NC[C@@H]2CCCN2)c2cc(-c3ccc(Cl)cc3)sc12
Response line: 0.197

Prompt line: Same thing, different molecule: NC(=O)c1cnc(N[C@H]2CCCNC2)c2cc(-c3ncccn3)sc12
Response line: 0.06

Prompt line: Same thing, different molecule: NC(=O)c1cnc(N[C@H]2CCCNC2)c2sc(-c3ccc(Cl)cc3)cc12
Response line: 4.58

Prompt line: Same thing, different molecule: NC(=O)c1cnc(N[C@@H]2CCCC[C@H]2N)c2cc(-c3ccc(Cl)cc3)sc12
Response line: 27.1

Prompt line: Same thing, different molecule: NC(=O)c1cnc(N[C@H]2CCCNC2)c2cc(-c3cccnc3)sc12
Response line: 0.005
